target: Human MGAT-2 (Homo sapiens (Human)); test: MGAT LCMS Assay (human MGAT-2); type: biochemical; settings: human MGAT-2 membranes expressed in Sf9 cells; 2-oleoylglycerol and oleoyl-Coenzyme A; read-out: h-MGAT2 IC50 (nM) LCMS Assay;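 also: diolein product quantified by LC/MS with positive APCI, expressed as peak area ratio versus an internal standard, and this ratio used to derive IC50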
Sequence (Q3SYC2 whole entry): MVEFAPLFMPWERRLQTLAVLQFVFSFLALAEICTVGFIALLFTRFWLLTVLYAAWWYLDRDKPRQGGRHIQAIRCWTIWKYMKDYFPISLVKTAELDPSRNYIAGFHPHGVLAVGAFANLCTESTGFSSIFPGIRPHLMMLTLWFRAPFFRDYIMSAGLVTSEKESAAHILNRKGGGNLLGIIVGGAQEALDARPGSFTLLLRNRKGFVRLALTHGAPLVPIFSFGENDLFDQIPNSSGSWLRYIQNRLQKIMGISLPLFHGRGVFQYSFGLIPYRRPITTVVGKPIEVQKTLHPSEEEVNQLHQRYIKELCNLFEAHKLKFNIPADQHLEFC
observable: IC50 (nM)

The examples below pair each entry with its known result.
CS(=O)(=O)CC(=O)NC1=C(c2ccc(OCC(F)F)cc2)CC(c2ccc(OCCCC(F)(F)F)cc2)(C(F)(F)F)NC1=O (stereo not shown) = 3
O=C1NC(c2ccc(OCCCC(F)(F)F)cc2)(C(F)(F)F)CC(c2ccc(C3CC3)cc2)=C1c1nn[nH]n1 (stereo not shown) = 22
COc1cccc(C2=C(C#N)C(=O)NC(c3ccc(OCCCC(F)(F)F)cc3)(C(F)(F)F)C2)c1 (stereo not shown) = 280
CCCCCNC(=O)c1ccc(C2(C)CC(c3ccc(C)cc3)=C(C(=O)Nc3ccc(OC)cc3)C(=O)N2)cc1 (stereo not shown) = 1260
Cc1ccc(C2=C(C(=O)Nn3cnc([N+](=O)[O-])n3)C(=O)NC(c3ccc(OCCC(F)(F)F)cc3)(C(F)(F)F)C2)cc1 (stereo not shown) = 163
COc1ccc(NC(=O)C2=C(c3ccc(C)cc3)CC(C)(C(=O)NCC(C)C)NC2=O)cc1 (stereo not shown) = 1520
Cc1cc(C2=C(C#N)C(=O)NC(c3ccc(OCCCC(F)(F)F)cc3)(C(F)(F)F)C2)ccc1Cl (stereo not shown) = 152
Cc1ccc(C2=C(c3nn[nH]n3)C(=O)NC(c3ccc(C#CCOCc4ccccc4)cc3)(C(F)(F)F)C2)cc1 (stereo not shown) = 56

A = Cc1ccc(C2=C(NC(=O)c3cccc(Cl)c3)C(=O)NC(c3ccc(OCCCC(F)(F)F)cc3)(C(F)(F)F)C2)cc1 (stereo not shown)
B = O=C1NC(c2ccc(OCCCC(F)(F)F)cc2)(C(F)(F)F)CC(c2ccc(OC(F)F)cc2)=C1n1cnnn1 (stereo not shown)
C = O=C1NC(c2ccc(OCCCC(F)(F)F)cc2)(C(F)(F)F)CC(c2ccc(CC(F)(F)F)cc2)=C1c1nn[nH]n1 (stereo not shown)
D = O=C1NC(c2ccc(OCCCC(F)(F)F)cc2)(C(F)(F)F)CC(c2ccc(Br)cc2)=C1c1nn[nH]n1 (stereo not shown)
Request: Sequence the entries by IC50, beginning with the highest number. Provide the ranking by listing each label in its place in the requested order.
Result: A, D, C, B
(A: 421 nM, D: 40 nM, C: 12 nM, B: 6 nM)

a = CCCCCC#CC1(C(F)(F)F)CC(c2ccc(C)cc2)=C(c2nn[nH]n2)C(=O)N1 (stereo not shown)
b = O=C1NC(c2ccc(OCCCC(F)(F)F)cc2)(C(F)(F)F)CC(c2ccc(OC(F)F)cc2)=C1c1nn[nH]n1 (stereo not shown) [Example 245]
Request: Kindly compare a with b and tell me which has the lower IC50 figure. Respond using the label that marks the chosen record.
Result: a
(a: 7 nM, b: 46 nM)

A = O=C1NC(c2ccc(OCCCC(F)(F)F)cc2)(C(F)(F)F)CC(c2ccc3c(c2)CCO3)=C1c1nn[nH]n1 (stereo not shown)
B = COc1ccc(C2=C(n3cnnn3)C(=O)NC(c3ccc(OCCCC(F)(F)F)cc3)(C(F)(F)F)C2)cc1 (stereo not shown)
Request: From the recorded data, which exceeds the other in IC50: A or B ? Use the label to indicate which entry you chose.
Result: A
